Test: DPPH free radical scavenging assay
Assay type: biochemical
Settings: mean ± SD, n = 3
Recorded IC50 values for a group of compounds are listed next.
Please respond with the number in µM and leave the unit unwritten.

[[record]]
compound = "O=C(O)c1ccc(O)c(O)c1"
reported_measurement = 33.1

[[record]]
compound = "COc1cc([C@@H](O)[C@H](CO)Oc2c(OC)cc([C@@H]3OC[C@@H]4[C@H]3CO[C@H]4c3ccc(O)c(OC)c3)cc2OC)ccc1O (single isomer, unassigned)"
reported_measurement = 66.7


Query: Report measured IC50; entry is `COc1cc([C@@H](O)[C@H](CO)Oc2c(OC)cc([C@@H]3OC[C@@H]4[C@H]3CO[C@H]4c3cc(OC)c(O)c(OC)c3)cc2OC)ccc1O`
Reply: 65.9

Query: Report measured IC50; entry is COC1(C)CC2c3c(cc(O)cc3O1)OC(c1ccc(O)c(O)c1)C2O (stereo not drawn)
Reply: 46.8

Query: Report measured IC50; entry is Oc1cc(O)c2c(c1)O[C@H](c1ccc(O)c(O)c1)[C@@H](O)C2 [Compound 3, (+)-catechin]
Reply: 26.4

Query: Report measured IC50; entry is `COc1cc(-c2cc(=O)c3c(O)cc(O)cc3o2)cc(OC)c1O`
Reply: 61.2

====

Molecular target: α-Glucosidase (from Baker's yeast)
Assay: α-Glucosidase inhibitory assay (p-NPG substrate)
Conditions: read-out: IC50 α-Glucosidase inhibitory effect; mean ± SD, n = 3
Response field label takes Met when IC50 is strictly below 70 µM and Not met in all other cases.

Solved cases (6 shown):
[[record]]
molecule = "COc1cc([C@@H]2OC[C@H]3C(=O)OC[C@H]32)ccc1O"
target = "α-Glucosidase (from Baker's yeast)"
answer_label = "Not met"

[[record]]
molecule = "COC1(C)CC2c3c(cc(O)cc3O1)OC(c1ccc(O)c(O)c1)C2O (stereo not shown)"
target = "α-Glucosidase (from Baker's yeast)"
answer_label = "Met"

[[record]]
molecule = "COc1cc([C@@H](O)[C@H](CO)Oc2ccc(CCCO[C@@H]3O[C@H](CO)[C@@H](O)[C@H](O)[C@H]3O)cc2OC)ccc1O"
target = "α-Glucosidase (from Baker's yeast)"
answer_label = "Not met"

[[record]]
molecule = "COc1cc(O)cc2c1C(=O)c1c(cc(C)c(C(=O)OCC(O)CO)c1O)C2=O (stereo not shown)"
target = "α-Glucosidase (from Baker's yeast)"
answer_label = "Met"

[[record]]
molecule = "COc1cc(CCCO)cc(OC)c1OC(CO)CO"
target = "α-Glucosidase (from Baker's yeast)"
answer_label = "Met"

[[record]]
molecule = "O=c1cc(-c2ccc(O)cc2)oc2c([C@@H]3O[C@H](CO)[C@@H](O)[C@H](O)[C@H]3O)c(O)cc(O)c12"
target = "α-Glucosidase (from Baker's yeast)"
answer_label = "Not met"


Query: Please check: IC50 for COc1cc(C2Oc3c(OC)cc(CCCOC4OC(CO)C(O)C(O)C4O)cc3C2CO)ccc1O (stereo not shown) , strictly under 70 µM or not?
Reply: Not met

Query: Please check: IC50 for COc1cc(-c2cc(=O)c3c(O)cc(O[C@@H]4O[C@H](CO)[C@@H](O)[C@H](O)[C@H]4O)cc3o2)cc(OC)c1O [Compound 10, tricin-7-O-β-D-glucoside] , strictly under 70 µM or not?
Reply: Not met

Query: Please check: IC50 for `COc1cc(-c2cc(=O)c3c(O)cc(O)cc3o2)cc(OC)c1O` , strictly under 70 µM or not?
Reply: Not met

Query: Please check: IC50 for Oc1cc(O)c2c(c1)O[C@H](c1ccc(O)c(O)c1)[C@H](O)C2 [Compound 4, (-)-epicatechin] , strictly under 70 µM or not?
Reply: Met

Query: Please check: IC50 for COc1cc(-c2oc3cc(O)cc(O)c3c(=O)c2O[C@@H]2O[C@H](CO)[C@@H](O)[C@H](O)[C@H]2O)ccc1O [Compound 11, isorhamnetin-3-O-β-D-glucoside] , strictly under 70 µM or not?
Reply: Not met

Query: Please check: IC50 for Oc1cc(O)c2c(c1)O[C@H](c1ccc(O)c(O)c1)[C@@H](O)C2 [Compound 3, (+)-catechin] , strictly under 70 µM or not?
Reply: Not met

Query: Please check: IC50 for COc1cc(C2Oc3c(OC)cc(CCCO)cc3C2CO)cc(OC)c1O (stereo not shown) , strictly under 70 µM or not?
Reply: Met

====

Molecular target: α-Glucosidase (from Baker's yeast)
Assay: α-Glucosidase inhibitory assay (p-NPG substrate)
Conditions: read-out: IC50 α-Glucosidase inhibitory effect; mean ± SD, n = 3
Quantity measured: IC50 (µM)
Please respond with the number in µM and leave the unit unwritten.

// solved cases for IC50 follow
[[record]]
compound = "COc1cc([C@H](O)[C@H](CO)Oc2ccc(CCCO[C@@H]3O[C@H](CO)[C@@H](O)[C@H](O)[C@H]3O)cc2OC)ccc1O [Compound 23]"
reported_measurement = 82.1

[[record]]
compound = "COc1cc([C@@H](O)[C@H](CO)Oc2ccc([C@@H]3OC[C@@H]4[C@H]3CO[C@H]4c3ccc(O)c(OC)c3)cc2OC)ccc1O [Compound 32]"
reported_measurement = 5.71

[[record]]
compound = "COc1cc([C@H](O)[C@H](CO)Oc2ccc(CCCO)cc2OC)ccc1O [Compound 19]"
reported_measurement = 58.4

[[record]]
compound = "COc1cc([C@@H](O)[C@H](CO)Oc2c(OC)cc([C@@H]3OC[C@@H]4[C@H]3CO[C@H]4c3cc(OC)c(O)c(OC)c3)cc2OC)ccc1O [Compound 35]"
reported_measurement = 19.7

[[record]]
compound = "COc1cc([C@H]2OC[C@H]3[C@@H]2CO[C@@H]3c2cc(OC)c(O)c(OC)c2)ccc1O [Compound 30, (+)-medioresinol]"
reported_measurement = 34.4

[[record]]
compound = "COc1cc([C@@H](O)[C@H](CO)Oc2c(OC)cc([C@@H]3OC[C@@H]4[C@H]3CO[C@H]4c3ccc(O)c(OC)c3)cc2OC)ccc1O (single isomer, unassigned) [Compound 33]"
reported_measurement = 50.9


Query: Report measured IC50; entry is COc1cc([C@H]2OC[C@H]3[C@H]2CO[C@@H]3c2cc(OC)c(O[C@@H](CO)[C@@H](O)c3cc(OC)c(O)c(OC)c3)c(OC)c2)cc(OC)c1O [Compound 36]
Reply: 22.7

Query: Report measured IC50; entry is COc1cc(C2Oc3c(OC)cc(CCCO)cc3C2CO)ccc1O (centres unmarked) [Compound 13]
Reply: 88.6

Query: Report measured IC50; entry is COc1cc([C@@H](O)[C@H](CO)Oc2ccc(CCCO)cc2OC)ccc1O [Compound 20]
Reply: 52.6

====

Molecular target: PTP1B (Homo sapiens, UniProt P18031)
Sequence (P18031 1-321 limits assumed): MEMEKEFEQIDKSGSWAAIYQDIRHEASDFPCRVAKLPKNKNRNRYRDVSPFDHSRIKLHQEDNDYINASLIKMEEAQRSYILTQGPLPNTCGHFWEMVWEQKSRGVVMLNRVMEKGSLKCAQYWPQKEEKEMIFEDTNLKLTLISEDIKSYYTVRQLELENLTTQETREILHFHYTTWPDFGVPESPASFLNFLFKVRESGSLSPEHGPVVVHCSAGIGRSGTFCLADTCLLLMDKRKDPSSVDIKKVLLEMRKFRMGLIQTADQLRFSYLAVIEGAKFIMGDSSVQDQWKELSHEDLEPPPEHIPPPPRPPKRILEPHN
Test: PTP1B inhibitory assay (p-NPP substrate)
Recorded IC50 values for a group of compounds are listed next.
Please respond with the number in µM and leave the unit unwritten.

// solved cases for IC50 follow
[[record]]
compound = "COc1cc([C@H](O)[C@H](CO)Oc2ccc(CCCO[C@@H]3O[C@H](CO)[C@@H](O)[C@H](O)[C@H]3O)cc2OC)ccc1O"
quantity_measured = "IC50"
reported_measurement = 90.1

[[record]]
compound = "COC1(C)CC2c3c(cc(O)cc3O1)OC(c1ccc(O)c(O)c1)C2O (centres unmarked)"
quantity_measured = "IC50"
reported_measurement = 9.41


Query: Report measured IC50; entry is COc1cc(O)cc2c1C(=O)c1c(cc(C)c(C(=O)OCC(O)CO)c1O)C2=O (centres unmarked)
Reply: 15.8

Query: Report measured IC50; entry is `COc1cc([C@@H](O)[C@H](CO)Oc2c(OC)cc([C@@H]3OC[C@@H]4[C@H]3CO[C@H]4c3cc(OC)c(O)c(OC)c3)cc2OC)ccc1O`
Reply: 63.2

Query: Report measured IC50; entry is `COc1cc([C@@H](O)[C@H](CO)Oc2ccc(CCCO[C@@H]3O[C@H](CO)[C@@H](O)[C@H](O)[C@H]3O)cc2OC)ccc1O`
Reply: 92.4

Query: Report measured IC50; entry is `COC(=O)c1ccc(O)c(O)c1`
Reply: 63

Query: Report measured IC50; entry is `O=C(O)c1ccc(O)c(O)c1`
Reply: 44.8

====

Assay: DPPH free radical scavenging assay
Assay type: biochemical
Conditions: mean ± SD, n = 3
Quantity measured: pIC50
Remember the convention: pIC50 equals -log10 of concentration in molar.

// solved cases for pIC50 follow
[[record]]
compound = "O=C1O[C@H]([C@@H](O)CO)C(O)=C1O [Ascorbic acid, reference compound]"
reported_measurement = 4.45

[[record]]
compound = "COc1c(O)cc(O)c2c(=O)cc(-c3ccccc3)oc12"
reported_measurement = 4.00

[[record]]
compound = "C[C@@H]1O[C@@H](O[C@H]2C(=O)c3c(O)cc(O)cc3O[C@@H]2c2ccc(O)c(O)c2)[C@H](O)[C@H](O)[C@H]1O"
reported_measurement = 4.33


Query: Report measured pIC50; entry is Oc1cc(O)c2c(c1)O[C@H](c1ccc(O)c(O)c1)[C@H](O)C2 [Compound 4, (-)-epicatechin]
Reply: 4.49

Query: Report measured pIC50; entry is COc1cc(-c2oc3cc(O)cc(O)c3c(=O)c2O[C@@H]2O[C@H](CO)[C@@H](O)[C@H](O)[C@H]2O)ccc1O [Compound 11, isorhamnetin-3-O-β-D-glucoside]
Reply: 4.66

Query: Report measured pIC50; entry is `COc1cc([C@H]2OC[C@H]3[C@H]2CO[C@@H]3c2cc(OC)c(O[C@@H](CO)[C@@H](O)c3cc(OC)c(O)c(OC)c3)c(OC)c2)cc(OC)c1O`
Reply: 4.20

Query: Report measured pIC50; entry is COc1cc(O)cc2c1C(=O)c1c(cc(C)c(C(=O)OCC(O)CO)c1O)C2=O (centres unmarked)
Reply: 4.64

Query: Report measured pIC50; entry is COc1cc([C@H]2OC[C@H]3[C@@H]2CO[C@@H]3c2cc(OC)c(O)c(OC)c2)cc(OC)c1O [Compound 31, (+)-syringaresinol]
Reply: 4.18

Query: Report measured pIC50; entry is COc1cc(C2Oc3c(OC)cc(CCCO)cc3C2CO)cc(OC)c1O (centres unmarked)
Reply: 4.22

Query: Report measured pIC50; entry is Oc1ccc([C@H]2Oc3cc(O)cc(O)c3C[C@H]2O)cc1 [Compound 2, (-)-epiafzelechin]
Reply: 4.36

Query: Report measured pIC50; entry is `COc1cc(O)c2c(=O)cc(-c3ccc(O)cc3)oc2c1`
Reply: 4.10
